The measured values listed here are drawn from a melting point compilation (Tetko et al.; mined from patent text by program, amines drawn as free bases though some values may be those of a salt).

# maps each entry to its melting point
outcome-measure: melting point

In [3]: df
Out[3]:
                                   compound       observed
0                CN1C(=O)CC[C@H]1COc1cccnc1    73 to 74 °C
1  O=C(NC(Cc1ccccc1)C(=O)O)c1ccc(-c2ccccc2OC2OC(CO)C(O)C(O)C2O)cc1 (stereo not drawn)  116 to 119 °C
2  COc1ccc2c(c1)CC(Nc1ccc(OCc3ccccc3)cc1)C2 (stereo not drawn)    55 to 57 °C

====

Non-standard residues stand in square brackets, D forms with d. Residues, ends and D or L forms follow the SMILES beside them. *: point of attachment. Npys = O=[N+]([O-])c1cccnc1S*; Mpa = O=C(O)CCS
outcome-measure: melting point

                                    molecule  outcome_measure       observed
 0  CCOc1ccccc1COc1ccc2c(c1)C=C(C(=O)O)CCS2(=O)=O    melting point  158 to 160 °C
 1  CC(C)C[C@@H](C=O)NC(=O)[C@H](Cc1c[nH]cn1)NC(=O)[C@H](Cc1ccccc1)NC(=O)CCSSc1ncccc1[N+](=O)[O-] ([Mpa](Npys)FHL-aldehyde)    melting point  101 to 105 °C
 2                      Oc1ccc(C2OCCO2)cc1Br    melting point    76 to 78 °C
 3                 COc1ccc(C)c(NCc2ccccc2)c1    melting point    81 to 82 °C
 4                   CON=C(N)Nc1nc(C)cc(C)n1    melting point  134 to 136 °C
 5        CCN(CC)C(=O)c1c(OC)cccc1S(N)(=O)=O    melting point  190 to 194 °C
 6                    O=CN1CCN(C(=O)CCBr)CC1    melting point    96 to 98 °C
 7  COC(=O)C1=C2Nc3ccccc3C23CCNC3CC1 (stereo not given)    melting point  145 to 148 °C
 8  O=C(O)CCc1ccc(OCc2nc(-c3ccccc3)c(-c3ccccc3)o2)cc1    melting point  124 to 127 °C
 9  Cc1noc(-c2cccc(NC(=O)N[C@@H]3c4cc(C#N)ccc4OC(C)(C)[C@H]3O)c2)n1    melting point  157 to 161 °C
10  CCCCCC1(c2ccccc2)CC=CC(=O)O1 (stereo not given)    melting point  123 to 124 °C
11                          Cn1ccnc1C(C)(C)O    melting point  128 to 129 °C
12       COc1ccc(C=C2NC(=O)NC2=O)cc1OC1CCCC1    melting point  220 to 222 °C
13  COc1ccc(-c2nn(CC=Cc3ccc(Cl)cc3)c(=O)cc2-c2ccc(OC)c(F)c2)cc1    melting point  109 to 111 °C
14      O=S1(=O)N=C(Nc2ccccn2)Nc2ccc(Cl)cc21    melting point       > 310 °C

====

# maps each entry to its melting point
outcome-measure: melting point

>>> print(df.to_string())
                                    compound  outcome_measure       observed
 0       COC(=O)C(=O)C12CC3CC(CC(O)(C3)C1)C2    melting point  164 to 166 °C
 1  CCCCc1ncc(/C=C(\Cc2cccs2)c2nnn[nH]2)n1Cc1ccc(-c2nnn[nH]2)cc1    melting point  227 to 230 °C
 2  COc1cc(NS(C)(=O)=O)c(Oc2ccccc2)cc1C(C)=O    melting point  108 to 110 °C
 3  CC(=O)SCCC(=O)NC(Cc1cn(C=O)c2ccccc12)C(=O)O (racemic)    melting point  130 to 133 °C
 4   COC(=O)c1ccc(S(=O)(=O)C[N+](=O)[O-])cc1    melting point  106 to 108 °C
 5           CCc1cc2c(cc1CC)C(=O)C(Cl)=CC2=O    melting point    90 to 92 °C
 6  Fc1ccc(CNc2nc3ccccc3n2-c2ccc(F)c(F)c2)cc1F    melting point  158 to 160 °C
 7  CC(C)c1cc([N+](=O)[O-])c(O)c(C(C)C)c1NC(=O)CN1CCN(CCSc2nc3ccccc3o2)CC1    melting point  139 to 141 °C
 8  O=C1N=c2ccc(C3(c4nc5ccc(-c6ccccc6)cc5[nH]4)N=c4ccccc4=N3)cc2=NC1=O    melting point       > 280 °C
 9  Cc1ccc([N+](=O)[O-])cc1Nc1nccc(-c2cncnc2)n1    melting point  200 to 203 °C
10  O=C(CC1(c2ccccc2)CCC1)C(=O)Nc1ccc2c(c1)COC2=O    melting point  142 to 146 °C

====

outcome-measure: melting point

>>> df
                                   compound  outcome_measure       observed
0  CCN1CC(C(=O)N2CCOCC2)Cc2cccc(CSc3nc4ccccc4[nH]3)c21 (stereo not drawn)    melting point         194 °C
1  COC(=O)c1c(C(F)F)nc(C(F)(F)F)c(C(O)c2cccs2)c1CC(C)C (stereo not drawn)    melting point    78 to 88 °C
2          CCOC(=O)/C=C/c1sc(SC)c2c1CCCC2=O    melting point  104 to 105 °C
3  CCC(=O)NC1=NN(c2ccccc2)C(c2ccc(C)cc2)C1 (stereo not drawn)    melting point  124 to 125 °C
4  C[Si](C)(C)OCCNc1ccc(NCCO[Si](C)(C)C)c2c1C(=O)c1ccccc1C2=O    melting point  123 to 126 °C
5   CCCCCCCCCCCCCCCc1cc2c(C(=O)O)cccc2[nH]1    melting point  114 to 117 °C
6  Cc1cccc(-c2nc(NC(=O)c3ccc(Cl)nc3)sc2-c2ccnc(NC3CCCC3)c2)c1    melting point  211 to 212 °C
7  O=C(c1cc2cc(OCCNC[C@H](O)COc3ccccc3)ccc2o1)N1CCCC1    melting point  117 to 118 °C

====

# maps each entry to its melting point
outcome-measure: melting point

>>> print(df.to_string())
                                   molecule  outcome_measure       observed
0        CN1CCC(=O)N(c2ccccc2)c2cc(Cl)ccc21    melting point  143 to 144 °C
1  CCCC1=C(C(=O)OCC)C(c2cc(F)ccc2F)c2c[nH]nc2N1 (configuration not stated)    melting point  168 to 169 °C
2  CCCCN(CCCC)c1ccc(C=Cc2ccc(C=CC3=C(C#N)C(=C(C#N)C#N)OC3(c3ccccc3)C(F)(F)F)cc2)c(OC)c1 (configuration not stated)    melting point  176 to 178 °C
3  CC(=O)c1cc(N2CCOCC2)ccc1NC(=O)c1cccc2c1OCO2    melting point  150 to 152 °C
4         O=C(O)c1cccc(-c2cnn3c(O)ncnc23)c1    melting point       > 300 °C
5  CCOC(=O)C1=C(C)Nc2cc[nH]c(=O)c2C1c1ccccc1Cl (configuration not stated)    melting point  204 to 205 °C
6  CCNCC1CCN(c2cc3c(cc2F)c(=O)c(C(=O)O)cn3CC)C1 (configuration not stated)    melting point  248 to 252 °C

====

outcome-measure: melting point

                                 mol_smiles  outcome_measure       observed
0  CS(=O)(=O)c1ccc(C(=O)c2cnoc2C2CC2)c(C(F)(F)F)c1S(C)(=O)=O    melting point  191 to 193 °C
1    CNC(=O)Nc1ccc(OCC2CCN(c3ccncc3)CC2)cc1    melting point  222 to 224 °C
2       CCOC(=O)c1cn2cnc3ccccc3c2c1C(=O)OCC    melting point  125 to 126 °C
3                 CON=C(C(=O)O)C1(CCl)OCCO1    melting point    80 to 81 °C
4  CC/C(=C(\c1ccc(/C=C/C(=O)O)cc1)c1ccc(OP(=O)(O)O)cc1)c1ccccc1    melting point  181 to 183 °C

====

outcome-measure: melting point

                                   compound  outcome_measure       observed
0  CC(C)C1COCc2nc3c(N)nc4cc(O)ccc4c3n21 (stereo not given)    melting point  210 to 215 °C
1                         BrCc1c(Br)cccc1Br    melting point    77 to 78 °C
2  O=C(O)[C@H]1Cc2ccccc2CN1S(=O)(=O)c1ccc([N+](=O)[O-])cc1    melting point         140 °C
3  OC1OC(Cn2cncn2)(c2ccc(Cl)cc2)c2ccccc21 (stereo not given)    melting point  215 to 217 °C
4     CON=C(C(=O)O)c1cccc(NC(=O)C(F)(F)F)n1    melting point  194 to 195 °C
5      CCN(CC)CCNC(=O)c1cnc(-c2ccccc2)nc1Cl    melting point    40 to 45 °C
6           Cc1ccc(-c2nccc3c(C#N)cccc23)cc1    melting point         132 °C
7  CC(C)Cc1nc2ccc(Br)cc2c(-c2ccccc2)c1CNC(=O)OC(C)(C)C    melting point  193 to 194 °C
8                  COc1ccc(Br)c2c1CC(=O)CO2    melting point   97 to 100 °C
9               O=C(O)/C=C/c1cnoc1-c1ccccc1    melting point  197 to 199 °C
